assayed-system: Delta-type opioid receptor (Mus musculus, UniProt P32300)
Sequence (P32300 whole entry): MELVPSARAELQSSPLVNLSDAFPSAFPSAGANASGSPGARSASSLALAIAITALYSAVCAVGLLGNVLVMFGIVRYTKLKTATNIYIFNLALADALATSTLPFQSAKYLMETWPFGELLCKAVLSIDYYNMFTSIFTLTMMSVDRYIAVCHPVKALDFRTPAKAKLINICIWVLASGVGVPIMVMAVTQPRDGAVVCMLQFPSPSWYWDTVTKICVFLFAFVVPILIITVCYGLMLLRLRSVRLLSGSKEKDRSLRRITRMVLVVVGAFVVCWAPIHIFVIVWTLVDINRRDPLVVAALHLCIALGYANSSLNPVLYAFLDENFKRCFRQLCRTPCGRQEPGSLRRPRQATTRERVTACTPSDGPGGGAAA
assay-overview: Agonist activity at delta opioid receptor in mouse vas deferens
Where a SMILES comes first, the peptide text is derived from it. [ ]: non-standard residue; d: D form. dNMeA = CN[C@H](C)C(=O)O; Sar = CNCC(=O)O
property-name: IC50 (µM)
Lab book: enter the figure in µM, no units written.

# molecule, IC50 [µM]
measured = [
    ("C[C@H](C(=O)N[C@@H](Cc1ccccc1)C(=O)N(C)CC(N)=O)N(C)C(=O)[C@@H](N)Cc1ccc(O)cc1 (H-Y[dNMeA]F[Sar]-NH2)", 79.7),
]

As a next step, examine the molecule that follows.
// IC50 value for C[C@H](C(=O)N[C@H]1Cc2ccccc2CN(CC(N)=O)C1=O)N1Cc2cc(O)ccc2C[C@H](N)C1=O : 30.3

---

assayed-system: Delta-type opioid receptor (Rattus norvegicus)
Sequence (P33533 whole entry): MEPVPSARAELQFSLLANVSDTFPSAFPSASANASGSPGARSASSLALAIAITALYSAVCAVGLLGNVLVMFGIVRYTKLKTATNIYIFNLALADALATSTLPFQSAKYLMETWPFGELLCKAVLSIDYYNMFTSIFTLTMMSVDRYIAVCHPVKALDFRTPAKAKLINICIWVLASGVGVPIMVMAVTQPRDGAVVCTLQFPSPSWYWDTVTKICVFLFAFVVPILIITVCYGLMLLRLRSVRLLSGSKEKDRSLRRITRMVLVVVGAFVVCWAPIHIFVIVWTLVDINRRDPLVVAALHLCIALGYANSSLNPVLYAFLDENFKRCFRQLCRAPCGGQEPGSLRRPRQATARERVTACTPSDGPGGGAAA
assay-overview: Displacement of [3H]deltorphin2 from delta opioid receptor in rat brain membrane
Where a SMILES comes first, the peptide text is derived from it. [ ]: non-standard residue; d: D form. dNMeA = CN[C@H](C)C(=O)O; Sar = CNCC(=O)O
property-name: IC50

# compound, data-value
records = [
    ("C[C@H](C(=O)N[C@H]1Cc2ccccc2CN(CC(N)=O)C1=O)N1Cc2cc(O)ccc2C[C@H](N)C1=O", "17.8 µM"),
]

Lab note: compound C[C@H](C(=O)N[C@@H](Cc1ccccc1)C(=O)N(C)CC(N)=O)N(C)C(=O)[C@@H](N)Cc1ccc(O)cc1 (H-Y[dNMeA]F[Sar]-NH2) tested on Delta-type opioid receptor (Rattus norvegicus); recorded IC50 was 7.1 µM

---

assayed-system: Mu-type opioid receptor (Cavia porcellus)
Sequence (P97266 whole entry): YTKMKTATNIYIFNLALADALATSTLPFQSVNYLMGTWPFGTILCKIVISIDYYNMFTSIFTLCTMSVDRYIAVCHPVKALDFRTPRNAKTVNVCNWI
assay-overview: Agonist activity at mu opioid receptor in guinea pig ileum
Where a SMILES comes first, the peptide text is derived from it. [ ]: non-standard residue; d: D form. dNMeA = CN[C@H](C)C(=O)O; Sar = CNCC(=O)O
// values below are reported IC50
Provide the reading as a plain figure in µM.

# compound, property-name, data-value
records = [
    ("C[C@H](C(=O)N[C@@H](Cc1ccccc1)C(=O)N(C)CC(N)=O)N(C)C(=O)[C@@H](N)Cc1ccc(O)cc1 (H-Y[dNMeA]F[Sar]-NH2)", "IC50", 22),
]

Now take the following compound into account.
// sample C[C@H](C(=O)N[C@H]1Cc2ccccc2CN(CC(N)=O)C1=O)N1Cc2cc(O)ccc2C[C@H](N)C1=O , its IC50 was 3.64
